- tgt: T1, human TGFβ2 (human, UniProt P61812 303-414)
- T1 construct: also called TGFβ2 homodimer
- T1 sequence: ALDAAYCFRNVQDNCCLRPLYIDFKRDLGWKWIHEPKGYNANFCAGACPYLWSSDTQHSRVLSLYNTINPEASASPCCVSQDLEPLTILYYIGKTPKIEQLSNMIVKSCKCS
- assay_summary: Biacore off-rate vs wt GC1008, 50 nM
Listed binders paired with reported kd var/kd wt
Lab note: write the figure by itself, no unit.

# binder, kd var/kd wt
rows = [
    ("Y27R (antibody, V domains shown, GC1008 IgG4 variant) VH: QVQLVQSGAEVKKPGSSVKVSCKASGRTFSSNVISWVRQAPGQGLEWMGGVIPIVDIANYAQRFKGRVTITADESTSTTYMELSSLRSEDTAVYYCASTLGLVLDAMDYWGQGTLVTVSS VL: ETVLTQSPGTLSLSPGERATLSCRASQSLGSSYLAWYQQKPGQAPRLLIYGASSRAPGIPDRFSGSGSGTDFTLTISRLEPEDFAVYYCQQYADSPITFGQGTRLEIK", 1.5),
]

Field kd var/kd wt (entry N59R (antibody, V domains shown, GC1008 IgG4 variant) VH: QVQLVQSGAEVKKPGSSVKVSCKASGYTFSSNVISWVRQAPGQGLEWMGGVIPIVDIARYAQRFKGRVTITADESTSTTYMELSSLRSEDTAVYYCASTLGLVLDAMDYWGQGTLVTVSS VL: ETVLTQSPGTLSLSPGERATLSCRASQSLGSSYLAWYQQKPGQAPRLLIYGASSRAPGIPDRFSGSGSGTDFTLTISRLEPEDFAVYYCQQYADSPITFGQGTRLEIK ) reads 1.1

Field kd var/kd wt (entry Y27P (antibody, V domains shown, GC1008 IgG4 variant) VH: QVQLVQSGAEVKKPGSSVKVSCKASGPTFSSNVISWVRQAPGQGLEWMGGVIPIVDIANYAQRFKGRVTITADESTSTTYMELSSLRSEDTAVYYCASTLGLVLDAMDYWGQGTLVTVSS VL: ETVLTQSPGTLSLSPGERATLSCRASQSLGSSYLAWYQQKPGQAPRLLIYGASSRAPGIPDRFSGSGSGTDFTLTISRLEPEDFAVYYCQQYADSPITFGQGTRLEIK ) reads 1.4
